# TARGET OF ASSAY: Human recombinant PDE4 (Genbank accession no NM—006203) (Homo sapiens, UniProt Q08499)
# Sequence (Q08499 1-673 isoform Q08499-2): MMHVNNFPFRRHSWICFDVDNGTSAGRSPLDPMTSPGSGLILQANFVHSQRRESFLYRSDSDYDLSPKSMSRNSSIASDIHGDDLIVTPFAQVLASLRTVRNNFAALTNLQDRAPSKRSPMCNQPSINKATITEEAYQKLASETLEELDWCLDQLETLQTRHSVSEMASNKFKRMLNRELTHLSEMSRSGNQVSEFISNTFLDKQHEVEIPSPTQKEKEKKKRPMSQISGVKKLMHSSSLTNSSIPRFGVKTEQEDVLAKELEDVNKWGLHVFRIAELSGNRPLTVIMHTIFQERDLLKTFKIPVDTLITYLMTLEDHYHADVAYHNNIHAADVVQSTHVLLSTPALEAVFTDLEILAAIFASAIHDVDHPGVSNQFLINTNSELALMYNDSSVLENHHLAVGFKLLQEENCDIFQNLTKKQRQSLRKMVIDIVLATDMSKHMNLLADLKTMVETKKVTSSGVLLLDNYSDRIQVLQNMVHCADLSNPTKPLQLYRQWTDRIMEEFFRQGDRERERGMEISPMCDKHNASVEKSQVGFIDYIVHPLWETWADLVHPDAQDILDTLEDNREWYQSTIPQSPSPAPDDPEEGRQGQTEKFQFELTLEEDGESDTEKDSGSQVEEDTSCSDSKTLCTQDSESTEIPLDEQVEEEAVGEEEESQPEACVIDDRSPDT
# ASSAY DETAILS: PDE4 Assay (SPA, cleavage of cAMP)
# Type: biochemical
# CONDITIONS: human recombinant PDE4, 1 hour incubation, cAMP 1×10^-5M, test compound up to 10 μM; read-out: IC50 (PDE4)
What log10(IC50) was measured for each of the following?
Please interpret these as log10 of IC50 where IC50 is in nM.

| COMPOUND | log10(IC50) |
| --- | --- |
| COc1ccc(C(=O)Cc2c(Cl)c[n+]([O-])cc2Cl)c2c1OCC1(CO2)CS(=O)(=O)C1 [Compound 125] | 2.30 |
| COc1ccc(C(=O)Cc2c(Cl)cncc2Cl)c2c1OCC1(CO2)CSCSC1 [Compound 132] | 1.41 |
| COc1ccc(C(=O)Cc2c(Cl)cncc2Cl)c2c1OC1(CCSCC1)O2 [Compound 110] | 1.04 |
| COc1ccc(C(=O)Cc2c(Cl)cncc2Cl)c2c1OCC1(COCOC1)CO2 [Compound 130] | 1.60 |
| COc1ccc(C(=O)Cc2cnccn2)c2c1OC1(CCSCC1)O2 [Compound 116] | 3.11 |

[Q] Please provide the recorded log10(IC50) for COc1ccc(C(=O)Cc2ccncc2Br)c2c1OC1(CCSCC1)O2 [Compound 114] , tested on Human recombinant PDE4 (Genbank accession no NM—006203) (Homo sapiens, UniProt Q08499).
[A] 1.65

----------
# TARGET OF ASSAY: Human recombinant PDE4 (Genbank accession no NM—006203) (Homo sapiens)
# ASSAY DETAILS: PDE4 Assay (SPA, cleavage of cAMP)
# Format: biochemical
# CONDITIONS: human recombinant PDE4, 1 hour incubation, cAMP 1×10^-5M, test compound up to 10 μM; read-out: IC50 (PDE4)
QUANTITY MEASURED: pIC50
Answers are plain numbers, as −log10 of the molar value.

| SUBSTANCE SMILES | QUANTITY MEASURED | NUMERIC VALUE |
| --- | --- | --- |
| COc1ccc(C(=O)Cc2c(Cl)c[n+]([O-])cc2Cl)c2c1OCC1(COC1)CO2 | pIC50 | 7.30 |
| COc1ccc(C(=O)Cc2c(Cl)c[n+]([O-])cc2Cl)c2c1OC1(CCS(=O)(=O)CC1)O2 | pIC50 | 7.28 |
| COc1ccc(C(=O)Cc2ccncc2)c2c1OC1(CCSCC1)O2 | pIC50 | 6.68 |

Proceed to the following item.
[Q] I would be grateful if you could share the reported pIC50 for COc1ccc(C(=O)Cc2c(Cl)cccc2Cl)c2c1OC1(CCSCC1)O2 .
[A] 7.15
